B1: VDR (parent)
chain: LIKFQVGLKKLNLHEEEHVLLMAI

- Variants of: B1
- method_summary: protein stability index of a GFP-peptide fusion (GPS, HEK-293T) (PSI 1-6); higher = more stable;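 further: lentivirally expressed fusions sorted by FACS into six bins by GFP to DsRed ratio, PSI derived from sequencing read proportions per bin multiplied by bin number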
- study_conditions: c terminus: a fixed tail appended
Use 3 as the dividing line for protein stability index, with the line itself on the Met side and lower values as Not met.

A selection of reference data follows.
- variant_code: "M22A"
  class_label: "Met"
- variant_code: "V19W"
  class_label: "Not met"
- variant_code: "M22Y"
  class_label: "Not met"

Q. In plain terms: is recorded protein stability index at least 3 for I24W ?
A. Not met

Q. Form field: protein stability index at least 3? Entry: M22R
A. Not met

Q. Entry V6W : is its protein stability index no less than 3?
A. Not met

Q. Can I2M be said to have protein stability index at or above 3?
A. Met

Q. Could you tell me if the measured protein stability index of H14P reaches 3 or more?
A. Not met

Q. Is it the case that G7K has protein stability index reaching or exceeding 3?
A. Not met

Q. Entry L11F : is its protein stability index no less than 3?
A. Not met

Q. Evaluate K10L : protein stability index at minimum 3?
A. Met

Q. Quick check: does L1I have protein stability index greater than or equal to 3?
A. Met

Q. Check if protein stability index >= 3 (inclusive). Item: L13N
A. Met
